Source: patent US9371331B2

- Target Of Assay: EZH2 (rPRC2) (Homo sapiens, UniProt Q15910)
- Sequence (Q15910 whole entry): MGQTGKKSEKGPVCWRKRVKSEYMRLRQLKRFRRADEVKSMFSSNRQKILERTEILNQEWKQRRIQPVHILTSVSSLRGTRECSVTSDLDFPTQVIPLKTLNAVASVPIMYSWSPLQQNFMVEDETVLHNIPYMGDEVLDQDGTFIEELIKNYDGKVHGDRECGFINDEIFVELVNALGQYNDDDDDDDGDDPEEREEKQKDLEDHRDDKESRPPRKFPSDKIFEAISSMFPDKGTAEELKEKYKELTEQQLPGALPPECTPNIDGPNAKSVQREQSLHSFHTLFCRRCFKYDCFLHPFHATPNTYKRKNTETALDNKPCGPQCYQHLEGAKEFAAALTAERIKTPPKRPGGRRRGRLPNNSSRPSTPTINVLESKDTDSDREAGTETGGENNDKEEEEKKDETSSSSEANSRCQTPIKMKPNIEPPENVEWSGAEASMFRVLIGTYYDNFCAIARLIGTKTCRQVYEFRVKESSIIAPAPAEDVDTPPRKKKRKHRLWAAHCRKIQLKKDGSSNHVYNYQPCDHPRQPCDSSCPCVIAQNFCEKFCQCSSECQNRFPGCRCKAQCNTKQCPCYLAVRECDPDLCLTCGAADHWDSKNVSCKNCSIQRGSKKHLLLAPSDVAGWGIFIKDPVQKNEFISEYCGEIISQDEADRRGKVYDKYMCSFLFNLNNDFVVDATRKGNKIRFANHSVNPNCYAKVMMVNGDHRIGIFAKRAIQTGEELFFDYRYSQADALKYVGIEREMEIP
- Sequence (O75530 whole entry partner): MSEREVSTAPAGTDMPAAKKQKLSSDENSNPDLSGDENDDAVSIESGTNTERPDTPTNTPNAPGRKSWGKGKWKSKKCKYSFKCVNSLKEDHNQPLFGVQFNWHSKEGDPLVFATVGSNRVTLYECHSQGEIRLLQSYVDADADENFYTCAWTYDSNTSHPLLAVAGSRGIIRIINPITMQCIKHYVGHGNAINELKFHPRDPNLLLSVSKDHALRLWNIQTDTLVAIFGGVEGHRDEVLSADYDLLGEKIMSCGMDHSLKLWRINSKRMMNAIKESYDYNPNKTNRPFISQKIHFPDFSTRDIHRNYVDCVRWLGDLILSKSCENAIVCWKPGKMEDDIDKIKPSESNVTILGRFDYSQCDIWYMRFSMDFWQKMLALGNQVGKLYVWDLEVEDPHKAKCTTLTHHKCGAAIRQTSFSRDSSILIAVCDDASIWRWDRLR
- Sequence (Q15022 whole entry partner): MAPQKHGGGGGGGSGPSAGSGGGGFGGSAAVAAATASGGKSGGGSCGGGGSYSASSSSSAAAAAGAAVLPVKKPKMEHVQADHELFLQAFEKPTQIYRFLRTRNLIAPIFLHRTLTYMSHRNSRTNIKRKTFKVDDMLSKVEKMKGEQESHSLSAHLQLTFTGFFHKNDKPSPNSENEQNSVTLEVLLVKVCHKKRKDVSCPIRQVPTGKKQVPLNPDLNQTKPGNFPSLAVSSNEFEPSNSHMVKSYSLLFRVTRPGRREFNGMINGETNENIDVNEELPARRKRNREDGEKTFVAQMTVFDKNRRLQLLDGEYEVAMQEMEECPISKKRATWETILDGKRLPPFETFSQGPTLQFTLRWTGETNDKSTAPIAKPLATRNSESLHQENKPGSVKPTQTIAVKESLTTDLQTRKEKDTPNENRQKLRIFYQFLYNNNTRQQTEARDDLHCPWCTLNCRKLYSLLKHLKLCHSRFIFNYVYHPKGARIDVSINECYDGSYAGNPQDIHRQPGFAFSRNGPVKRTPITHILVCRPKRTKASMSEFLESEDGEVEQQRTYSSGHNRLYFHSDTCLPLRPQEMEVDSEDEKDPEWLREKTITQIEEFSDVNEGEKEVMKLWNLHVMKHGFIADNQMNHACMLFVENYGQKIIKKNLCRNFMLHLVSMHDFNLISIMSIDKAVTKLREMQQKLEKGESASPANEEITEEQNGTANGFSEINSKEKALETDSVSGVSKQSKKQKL
- Experiment Notes: EZH2 assay: rPRC2, biotinylated oligonucleosomes, 3H SAM methyl transfer (FlashPlate scintillation)
- Assay type: biochemical
- Experimental Conditions: wild-type EZH2 (rPRC2), biotinylated oligonucleosome substrate; read-out: EZH2 IC50
Provide the reported IC50 of each item.

Q) Report value only: IC50, EZH2 (rPRC2) (Homo sapiens, UniProt Q15910), Cc1cc(C)c(CNC(=O)c2c(C)n([C@H](C)c3ccccc3)c3nc(N4CCNCC4)ncc23)c(O)n1
A) < 100 nM

Q) Report value only: IC50, EZH2 (rPRC2) (Homo sapiens, UniProt Q15910), COc1cc(C)[nH]c(=O)c1CNC(=O)c1c(C)n(-c2cccc3ncccc23)c2ccccc12
A) < 100 nM

Q) Report value only: IC50, EZH2 (rPRC2) (Homo sapiens, UniProt Q15910), COc1cc(C)[nH]c(=O)c1CNC(=O)c1c(C)n(C(C)C(OC)c2ccccc2)c2ncccc12 (stereo not shown)
A) < 100 nM

Q) Report value only: IC50, EZH2 (rPRC2) (Homo sapiens, UniProt Q15910), Cc1cc(C)c(CNC(=O)c2c(C)n([C@H](C)c3ccccc3)c3nc(C4CCOCC4)ncc23)c(O)n1
A) 100 to 1000 nM
